Here, each record is paired with measured Excess HSA synergy score data.
# System: PEO-1
# Procedure Details: Excess HSA synergy score (sum over dose matrix of excess over highest single agent) (score (summed % response)); higher = less synergy / more antagonism (negative = synergy)
# Condition Summary: 72 h; read-out: viability/apoptosis luminescence (CellTiter-Glo or Caspase3-Glo / not stated per table); matrix design: 10x10, 9-step dilutions (confirmatory)
Whole data set: some 1,500 compounds, median “Excess HSA synergy score (sum over dose matrix of excess over highest single agent)” near 43, cut for the lowest 2% near -900. Only a selection was taken, and the lowest values are over-represented in it overall.
Quantity Measured: Excess HSA synergy score

Nc1nc(Cl)nc2c1ncn2[C@H]1C[C@H](O)[C@@H](CO)O1 [Cladribine] + CC[C@H](NC(=O)[C@H](C)NC)C(=O)N1C[C@@H](O)C[C@H]1Cc1c(-c2[nH]c3cc(F)ccc3c2C[C@@H]2C[C@H](O)CN2C(=O)[C@H](CC)NC(=O)[C@H](C)NC)[nH]c2cc(F)ccc12
-1080
C[C@H](NC(=O)C(=O)Nc1ccccc1C(C)(C)C)C(=O)N[C@@H](CC(=O)O)C(=O)COc1c(F)c(F)cc(F)c1F [Emricasan] + CC[C@H](NC(=O)[C@H](C)NC)C(=O)N1C[C@@H](O)C[C@H]1Cc1c(-c2[nH]c3cc(F)ccc3c2C[C@@H]2C[C@H](O)CN2C(=O)[C@H](CC)NC(=O)[C@H](C)NC)[nH]c2cc(F)ccc12
-606
CN1CCCN(C(=O)c2cccc(-c3ccc(/C=C4/C(=O)Nc5ccc(Cl)cc54)o3)c2)CC1 + CC[C@H](NC(=O)[C@H](C)NC)C(=O)N1C[C@@H](O)C[C@H]1Cc1c(-c2[nH]c3cc(F)ccc3c2C[C@@H]2C[C@H](O)CN2C(=O)[C@H](CC)NC(=O)[C@H](C)NC)[nH]c2cc(F)ccc12
-1060
